- target.or.test.system: T1, CD38 on the surface of Daudi cells (human, UniProt P28907 1-300)
- T1 construct: whole, on cells
- measurement.protocol: flow cytometry, Daudi cells;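 also: purified antibodies incubated with Daudi cells for 1 h at 4 °C, bound antibody detected by fluorescent secondary antibody and read by flow cytometry as MFI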
Attribute: EC50
Answer format: numeric, pM implied, no suffix.

>  <binder>
25C3 (antibody, human IgG1, kappa, V domains shown, Rabbit-human chimeric anti-CD38: rabbit VH and VL on human IgG1 and kappa constant regions) VH: QEQLEESGGDLVKPGASLTLTCKASGFSFSSAYDMCWVRQAPGKGLEWVACLYTVSSDSIYYASWAKGRFTISRTSSTTVTLQMTSLTAADTATYFCARDGDYFALWGPGTLVTVSS VL: DIVMTHTPASVEAAVGGTVTIKCQASQNIGGYLSWYQQKPGQRPKLLIYRASTLASGVPSRFKGSGSGTQFTLTISDLESADAATYYCQTYYYSGSSRYWAFGGGTEVVVKR

>  <unit.descriptor>
pM

>  <meas.value>
347

$$$$

Problem: Query (binder): 17E9 (antibody, human IgG1, kappa, V domains shown, Rabbit-human chimeric anti-CD38: rabbit VH and VL on human IgG1 and kappa constant regions) VH: QSVEESGGRLVTPGTPLTLTCTASGFSLSRYYVTWVRQAPGKGLEWIGIIYISGTTYYATWAKGRFTISKSATTVDLRIASPTTEDTATYFCAAAWPVGTYVLPLWGPGTLVTVSS VL: AAVLTQTPSPVSAAVGGTVTIKCQSSQSVVNANNLSWYQQKPGQPPKLLIYLASTLASGVPSRFSGSGSGTQFTLTISSVQSDDAATYYCLGVYDDDGDNAFGGGTEVVVKR ; field requested: EC50
Result: 263

Problem: Param item = 17F7 (antibody, human IgG1, kappa, V domains shown, Rabbit-human chimeric anti-CD38: rabbit VH and VL on human IgG1 and kappa constant regions) VH: QSVEESGGRLVTPGTPLTLTCTASGFSLSSYYMSWVRQAPGKGLEWIGFISKTAITYYASWARGRFTISKTSTAVDLKITSPTTEDTATYFCARVDAYSAGDLWGPGTLVTVSS VL: AQVLTQTPSSVSAAVGGTVTINCQASQSVYSDNRLSWFQQKSGQPPKLLIYSTSSLASGVPSRFSGSGSGTQFTLTISGVQSDDAASYYCQGEFICTSADCFVFGGGTEVVVKR ; retrieve measured EC50.
Result: 432
